assay: NCI Yeast Anticancer Drug Screen. Data for the rad50 strain (AID 155);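 note: 0% = growth of vehicle-only cultures of the same strain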; conditions: S. cerevisiae rad50 strain growth inhibition; at 50.0 µM; stronger effect = higher value
This is part of a sample that, as a whole, favours compounds with a hit. Of some 79,000 tested, about 15% had one in any assay. The source made the active and inactive calls. Cut-off read from the data, not from the text of the source: active = growth inhibition above about 70%; inactive = the rest.
VALUE_KIND: growth inhibition

Sample records with growth inhibition:
>>> value("CCCC(=O)OC1CCCC1")
"27.9% (inactive)"
>>> value("O=C1NN=C(C(O)c2ccccc2)C1(O)c1ccccc1 (configuration not stated)")
"8.3% (inactive)"
>>> value("Cn1c(N)c(NC(=S)NCC2CCCCC2)c(=O)n(C)c1=O")
"-2.8% (inactive)"

stdin: Give a short answer stating reported growth inhibition for CC1(C)CCCC/C1=N\O .
stdout: 5.5% (inactive)

stdin: Give a short answer stating reported growth inhibition for Cc1cc(Cl)ncc1[N+](=O)[O-] .
stdout: -12.2% (inactive)

stdin: Give a short answer stating reported growth inhibition for CC(C)=CCC1=C(O)[C@@](O)(CC=C(C)C)C(=O)C(C(=O)CC(C)C)=C1O .
stdout: 28.2% (inactive)

* * *

assay: NCI Yeast Anticancer Drug Screen. Data for the sgs1 mgt1 strain (AID 161);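 note: 0% = growth of cultures given vehicle only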; conditions: S. cerevisiae sgs1 mgt1 strain, at 50.0 µM, stronger effect = higher value
The panel holds about 79,000 compounds, 15% with a hit somewhere; the sample as a whole holds those more often.
Recorded measurements of growth inhibition, one per entry
Number only, in %; omit the unit.

Sample records with growth inhibition:
>>> value("O=C(/C=C/c1ccccc1)CCc1c(O)c2ccccc2oc1=O")
0.45
>>> value("ClCCCOC1CCCCO1 (stereo unspecified)")
-21.1
>>> value("O=c1cc2n(c(=O)n1-c1ccccc1)CCCC2")
11.7

Now let's try a different one.
stdin: Give a short answer stating reported growth inhibition for COC(=O)C1=C(C)N(NC(=O)c2ccccc2)C(C)(O)C12CCOC2=O (stereo unspecified) .
stdout: 5.85

* * *

assay: NCI Yeast Anticancer Drug Screen. Data for the mec2-1 strain (AID 157); settings: S. cerevisiae mec2-1 strain, at 50.0 µM, stronger effect = higher value
About 79,000 compounds went through this panel and 15% of them were active in at least one assay; those are over-represented in the sample as a whole.
VALUE_KIND: growth inhibition (%)
Number only, in %; omit the unit.

>>> value("CCCCCCCC(C(=O)O)C(=O)O")
0.4

Now let's try a different one.
stdin: Give a short answer stating reported growth inhibition for C1=CC(=P(c2ccccc2)(c2ccccc2)c2ccccc2)C=C1 .
stdout: 25.1

* * *

test: NCI Yeast Anticancer Drug Screen. Data for the rad50 strain (AID 155);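 note: 0% = growth of vehicle-only cultures of the same strain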; conditions: S. cerevisiae rad50 strain growth inhibition; at 50.0 µM; stronger effect = higher value
This is part of a sample that, as a whole, favours compounds with a hit. Of some 79,000 tested, about 15% had one in any assay. The source made the active and inactive calls. Cut-off read from the data, not from the text of the source: active = growth inhibition above about 70%; inactive = the rest.
Recorded measurements of growth inhibition, one per entry

Sample records with growth inhibition:
>>> value("COc1cc2c3c4c1OCc1c5c(cc(c1-4)CC3[N+](C)(C)CC2)OCO5 (stereo not drawn)")
"4.35% (inactive)"
>>> value("CCCC(=O)OCCCCC1CCCO1 (stereo not drawn)")
"13.2% (inactive)"
>>> value("CC1=NN(C(=O)c2ccccc2O)C(=O)/C1=C/c1ccc(O)cc1")
"6.3% (inactive)"
>>> value("CCOC(=O)C1C/C2=C(/CCCCCCCCCC2)SCCCS1 (stereo not drawn)")
"4.35% (inactive)"
>>> value("O=C(c1ccc(Br)cc1)C1SC2(C(=O)c3ccc(Br)cc3)SC(C(=O)c3ccc(Br)cc3)C(C(=O)c3ccc(Br)cc3)SC2(C(=O)c2ccc(Br)cc2)SC1C(=O)c1ccc(Br)cc1 (stereo not drawn)")
"-8.8% (inactive)"
>>> value("CC1CCCN(C(=O)Nc2ccc([N+](=O)[O-])cc2)C1 (stereo not drawn)")
"41.1% (inactive)"
>>> value("Cc1ccc(S(=O)(=O)N(C)c2cc(Cl)c(I)cc2Cl)cc1")
"38.9% (inactive)"
>>> value("O=c1c(SCc2ccc(Cl)cc2Cl)c(SCc2ccc(Cl)cc2Cl)cnn1-c1ccccc1")
"16.8% (inactive)"

stdin: Give a short answer stating reported growth inhibition for CC(C)CC(=O)NC(Nc1ccc(S(=O)(=O)Nc2ncccn2)cc1)(C(F)(F)F)C(F)(F)F .
stdout: -2.9% (inactive)

stdin: Give a short answer stating reported growth inhibition for CCC/C(=N/NC(=O)C1CCCO1)c1ccccc1 (stereo not drawn) .
stdout: -1.8% (inactive)

From: PubChem BioAssay (NCI)
